Reported melting point values follow for various compounds

compound	experimental-result
COc1ccc(Nc2cncc(-c3c(C)noc3C)n2)cc1F [compound 637]	158 to 159 °C

Q: Given the compound Cc1nc2cc(F)ccc2n1-c1cncc(Nc2ccc(OC(F)(F)F)cc2)n1 [compound 206] , write its reported melting point.
A: 248 to 250 °C

Q: Given the compound CCn1nc(C)c(-c2cncc(Nc3ccc(OC(F)F)c(F)c3)n2)c1C [compound 382] , write its reported melting point.
A: 129 to 130 °C

Q: Given the compound CCc1nc2ccc(F)cc2n1-c1cncc(Nc2ccc(OC)cc2)n1 [compound 621] , write its reported melting point.
A: 218 to 220 °C
